# System: NCI/ADR-RES ovarian
# TEST_NAME: NCI-60 one-dose screen, 48 h (100 = growth as untreated, 0 = no growth, -100 = all killed)
# SETTINGS: 10 µM unless noted
This is part of a sample that, as a whole, favours compounds with a hit. Of some 83,000 tested, about 20% had one in any assay.
VALUE_KIND: growth (%)

>>> df
                                    molecule  value_kind  output_unit  assay_value
 0              O=[N+]([O-])c1ccccc1N1CCNCC1      growth            %         93.6
 1                  c1ccc2nc(OCCN3CC3)ccc2c1      growth            %         89.2
 2  OC1(c2ccccc2F)c2ccccc2C2=NCCN21 (centres undefined)      growth            %         86.6
 3  CCCCCN(CCCCC)CC(O)c1ccc(C)c(Cl)c1 (centres undefined)      growth            %          104
 4  CC(=O)N1N=C(c2ccccc2)CC1c1sc(N(CCCl)CCCl)nc1Cl (centres undefined)      growth            %           99
 5  Cc1cc([N+](=O)[O-])c(Cl)cc1NS(=O)(=O)c1ccccc1      growth            %         78.7
 6  [Br][Pb]([c]1ccccc1)([c]1ccccc1)[c]1ccccc1      growth            %        -71.6
 7                         CN1CC2CCC(C1)C2=O      growth            %          106
 8  CCC(/C=C(C)/C=C/C(=O)c1c(O)c(-c2ccc(O)cc2)c[nH]c1=O)CO (centres undefined)      growth            %         96.2
 9  CCCCn1cc(C(=O)/C(C#N)=C/c2cc3ccccc3nc2Cl)c2cc(OC)ccc21      growth            %         91.7
10            O1[As]2O[As]3O[As]1O[As](O2)O3      growth            %         13.8
11           n1nc(-c2nonc2-c2nn[nH]n2)n[nH]1      growth            %          104
12  COc1cc(C2CC(=O)Nc3nc(N)[se]c32)cc(OC)c1OC (centres undefined)      growth            %          107
13  Fc1ccc(C2=NN(c3ccccc3)C(c3sc(N(CCCl)CCCl)nc3Cl)C2)cc1 (centres undefined)      growth            %         92.3

====

# Test system: 786-0 renal
# TEST_NAME: NCI-60 one-dose screen, 48 h (100 = growth as untreated, 0 = no growth, -100 = all killed)
# SETTINGS: 10 µM unless noted
This is part of a sample that, as a whole, favours compounds with a hit. Of some 83,000 tested, about 20% had one in any assay.
VALUE_KIND: growth (%)

MOLECULE	ASSAY_VALUE
O=C(O)CC(Br)C(=O)CBr (centres undefined)	99.1
NCCc1cc(O)c(O)cc1O	99.9
O=[N+]([O-])c1ccccc1N1CCNCC1	94.1
CC(=O)Oc1ccc(Cl)cc1	99.5
CCCCCCCCCCOc1ccc(C(=O)Oc2ccc(CSP3(=O)OCC4OC(n5ccc(=O)[nH]c5=O)C(F)C4OP(=O)(O)OCC4OC(n5cnc6c(N)ncnc65)C(F)C4O3)cc2)cc1 (centres undefined)	98.6
CC(=O)C1C(=O)N(C)C(=O)N(C)C1=O	107
O=c1cc[nH]c(=O)o1	98.7
C/C(=C\C(=O)O[C@H]1[C@@H]2[C@H](C)CC[C@H]2[C@]2(C)O[C@@]1(C1CCCCC1)C[C@H]2OC(=O)CO)c1ccccc1	-16
O=C(c1cccs1)C1NO[N+]([O-])=C1c1cccs1 (centres undefined)	0.474
Cc1cc(N(CCCl)CCCl)ccc1C=Nc1ccc2ccccc2c1	75.5
COc1ccc(C2SCC(=O)Nc3c2c(C)nn3-c2nc3ccc(C)cc3s2)cc1O (centres undefined)	58.4
O=CN1N=C(c2ccc3c(c2)OCO3)CC1c1sc(N(CCCl)CCCl)nc1Cl (centres undefined)	87.8
O=C(O)CNC(=O)c1ccccc1	100
CC(C)(C)N(Cc1ccccc1)N=O	99
CCOC(=O)/C=C(\C)Nc1ccc(N/C(C)=C/C(=O)OCC)c2c1Oc1ccccc1O2	88.2
Oc1ccc(Br)cc1CN1CCN(Cc2ccc(Cl)cc2)CC1	107
CCOc1c(Cl)cc(CNC(C)C(O)c2ccccc2)cc1OC (centres undefined)	89.1
COc1cc(C2CC(=O)Nc3nc(N)[se]c32)cc(OC)c1OC (centres undefined)	114
C#CC1(O)CCC2(C)C(CCC3C4CCC(=O)C4(C)CCC32)C1 (centres undefined)	97.4
C[C@]12CCC(=O)CC1CC[C@@H]1C2CC[C@@]2(C)C1CC[C@@H]2OC(=O)CC[Se][Se]CCC(=O)O[C@H]1CCC2[C@@H]3CCC4CC(=O)CC[C@]4(C)C3CC[C@@]21C (some centres undefined)	107
CC(C)CCC[C@@H](C)[C@H]1CC[C@H]2[C@@H]3CC=C4C[C@@H](OC(=O)Cc5ccc(N(CCCl)CCCl)cc5)CC[C@]4(C)[C@H]3CC[C@]12C	96.7
CC1(C)N=C(N)N=C(N)N1c1ccc(CCCCc2ccc(S(=O)(=O)F)cc2)cc1	25.1
CC1(C)N=C(N)N=C(N)N1c1ccc(CCC(=O)Nc2cccc(S(=O)(=O)F)c2)cc1	58
c1ccc2nc(OCCN3CC3)ccc2c1	84.2
Cc1cc(NC(=O)/C=C/c2ccc([N+](=O)[O-])cc2)ccc1S(=O)(=O)F	89.1
Cc1ccc(N)cc1[As]=[As]c1cc(N)ccc1C (centres undefined)	-89.3
CC(=O)O[C@H]1CC[C@H]2[C@@H]3CC[C@H]4CC=C(C)C[C@]4(C)[C@H]3CC[C@]12C	100
C[C@]12CC[C@@H]3C4=C(CC[C@H]3[C@@H]1CC[C@@H]2O)CC(=O)CC4	106
C[C@]12CC[C@H](OC3OC(O)C(O)C(O)C3O)C=C1CCC1C2CC[C@]2(C)[C@@H](c3ccc(=O)oc3)CC[C@]12O (some centres undefined)	-84.4
O=C1C=CC(=O)C2C1C1(Cl)C(Cl)=C(Cl)C2(Cl)C1(Cl)Cl (centres undefined)	73.9
Nc1ccc([N+](=O)[O-])c2c1Oc1ccccc1O2	82.7
OB([O][Hg][c]1ccccc1)[O][Hg][c]1ccccc1	-76.6
CC(C)(NC(=O)c1nn(CCCCCF)c2ccccc12)c1ccccc1	89.3
Cc1ccc2oc(=O)c3c(c2c1)OC(N)=C(C#N)C3c1ccco1 (centres undefined)	102
CCC(CO)NC1CCCCC1 (centres undefined)	76
O=C(CF)N(O)c1ccc(/C=C/c2ccccc2)cc1	8.73
[Br][Pb]([c]1ccccc1)([c]1ccccc1)[c]1ccccc1	-96.3
O=[As]c1ccc(C(=O)c2ccc(Oc3ccccc3)cc2)cc1 (centres undefined)	-99.6
C/C(=N/OC(=O)N(C)C)c1ccc(Cl)cc1Cl	100
